Biological target: Human factor XIa (Homo sapiens)
Construct: purchased Enzyme Research Laboratories, Inc
Sequence (P03951 388-625 limits assumed): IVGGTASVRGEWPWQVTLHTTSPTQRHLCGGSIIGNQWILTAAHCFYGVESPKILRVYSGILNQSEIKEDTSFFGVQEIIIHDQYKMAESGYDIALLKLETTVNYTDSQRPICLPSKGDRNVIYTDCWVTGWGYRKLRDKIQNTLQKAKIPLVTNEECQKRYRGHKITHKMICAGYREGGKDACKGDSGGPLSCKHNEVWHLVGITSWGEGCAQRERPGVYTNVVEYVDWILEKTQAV
Sequence (P03951 19-387 partner limits assumed): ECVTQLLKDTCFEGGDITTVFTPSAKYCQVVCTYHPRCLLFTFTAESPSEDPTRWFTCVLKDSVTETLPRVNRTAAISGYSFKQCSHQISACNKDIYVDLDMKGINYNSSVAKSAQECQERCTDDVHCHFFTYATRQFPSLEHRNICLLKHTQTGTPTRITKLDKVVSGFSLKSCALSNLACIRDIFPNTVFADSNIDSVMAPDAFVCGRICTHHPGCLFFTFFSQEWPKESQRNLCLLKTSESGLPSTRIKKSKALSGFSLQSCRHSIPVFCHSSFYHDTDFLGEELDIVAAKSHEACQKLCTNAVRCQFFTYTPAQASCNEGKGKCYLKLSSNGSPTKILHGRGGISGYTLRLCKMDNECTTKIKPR
Experiment: Factor XIa assay, chromogenic substrate S2366
Format: biochemical
Conditions: 100 times the IC50 for factor Xa divided by the IC50 of factor XIa
Square brackets hold non-standard residues; d marks the D form. Peptide text beside a SMILES is read from it. * marks the point of attachment. d2Nal = N[C@H](Cc1ccc2ccccc2c1)C(=O)O; dPhg = N[C@@H](C(=O)O)c1ccccc1; Boc = CC(C)(C)OC(=O)*
Result type: Percent Selectivity XIa
I'd appreciate a reply containing only the number, no unit.

Suppose we examine the compound CC(C)(C)OC(=O)N[C@H](Cc1ccccc1)C(=O)N[C@@H](Cc1ccccc1)C(=O)N[C@H](C=O)CCCNC(=N)N [[4]] (Boc-[dF]-Phe-Arg-aldehyde) ; what Percent Selectivity XIa value has been reported? 0.8

Suppose we examine the compound CC(C)(C)OC(=O)N[C@H](Cc1ccc2ccccc2c1)C(=O)N[C@@H](Cc1ccccc1)C(=O)N[C@H](C=O)CCCNC(=N)N [[1]] (Boc-[d2Nal]-Phe-Arg-aldehyde) ; what Percent Selectivity XIa value has been reported? 1.4

Suppose we examine the compound CC(C)(C)OC(=O)N[C@@H](C(=O)N[C@@H](Cc1ccccc1)C(=O)N[C@H](C=O)CCCNC(=N)N)c1ccccc1 [[2]] (Boc-[dPhg]-Phe-Arg-aldehyde) ; what Percent Selectivity XIa value has been reported? 4.9

* * *

Target: Human α-thrombin (Homo sapiens, UniProt P00734)
Construct: Human α-thrombin was obtained from Enzyme Research Laboratories, Inc; purchased Enzyme Research Laboratories, Inc
Experiment: Thrombin assay, chromogenic substrate S2238
Format: biochemical
Settings: 100 times the IC50 for factor Xa divided by the IC50 of thrombin
Square brackets hold non-standard residues; d marks the D form. Peptide text beside a SMILES is read from it. * marks the point of attachment. d2Nal = N[C@H](Cc1ccc2ccccc2c1)C(=O)O; dPhg = N[C@@H](C(=O)O)c1ccccc1; Boc = CC(C)(C)OC(=O)*
Assignment: determine reported Percent Selectivity Thrombin for the given molecules.

Suppose we examine the molecule CC(C)(C)OC(=O)NC(C(=O)N[C@@H](Cc1cccc2ccccc12)C(=O)N[C@H](C=O)CCCNC(=N)N)c1ccc(-c2ccccc2)cc1 (some centres unmarked) [[7]] ; what Percent Selectivity Thrombin value has been reported? < 10

Suppose we examine the molecule CC(C)(C)OC(=O)N[C@H](Cc1ccccc1)C(=O)N[C@@H](Cc1ccccc1)C(=O)N[C@H](C=O)CCCNC(=N)N [[4]] (Boc-[dF]-Phe-Arg-aldehyde) ; what Percent Selectivity Thrombin value has been reported? < 0.8

Suppose we examine the molecule CC(C)(C)OC(=O)N[C@H](Cc1ccccc1)C(=O)N1CC[C@H](c2ccccc2)[C@H]1C(=O)N[C@H](C=O)CCCNC(=N)N (relative stereo) [[10]] ; what Percent Selectivity Thrombin value has been reported? < 2.5

Suppose we examine the molecule CC(C)(C)OC(=O)N[C@H](Cc1ccc2ccccc2c1)C(=O)N[C@@H](Cc1ccccc1)C(=O)N[C@H](C=O)CCCNC(=N)N [[1]] (Boc-[d2Nal]-Phe-Arg-aldehyde) ; what Percent Selectivity Thrombin value has been reported? 1.6

Suppose we examine the molecule CC(C)(C)OC(=O)N[C@@H](C(=O)N[C@@H](Cc1ccccc1)C(=O)N[C@H](C=O)CCCNC(=N)N)c1ccccc1 [[2]] (Boc-[dPhg]-Phe-Arg-aldehyde) ; what Percent Selectivity Thrombin value has been reported? < 2.6

* * *

Target: Human recombinant t-PA (Activase®) (Homo sapiens, UniProt P00750)
Construct: purchased Genentech, Inc
Sequence (P00750 36-562): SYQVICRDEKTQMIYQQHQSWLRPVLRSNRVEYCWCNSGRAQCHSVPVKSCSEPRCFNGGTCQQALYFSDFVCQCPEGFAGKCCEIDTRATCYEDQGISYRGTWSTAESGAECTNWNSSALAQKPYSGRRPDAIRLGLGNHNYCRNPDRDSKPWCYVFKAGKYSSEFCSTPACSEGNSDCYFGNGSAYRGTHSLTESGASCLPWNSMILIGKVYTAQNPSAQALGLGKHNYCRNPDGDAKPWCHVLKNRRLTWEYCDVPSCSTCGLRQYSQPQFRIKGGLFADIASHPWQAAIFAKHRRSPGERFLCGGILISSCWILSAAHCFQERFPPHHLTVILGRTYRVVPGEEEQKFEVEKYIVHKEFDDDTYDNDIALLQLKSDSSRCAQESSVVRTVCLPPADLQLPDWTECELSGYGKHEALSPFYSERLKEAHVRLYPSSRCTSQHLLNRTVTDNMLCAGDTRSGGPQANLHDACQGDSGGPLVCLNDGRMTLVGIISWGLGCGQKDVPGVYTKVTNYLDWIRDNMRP
Assay: tPA assay, chromogenic substrate Pefachrome tPA
Format: biochemical
Conditions: 100 times the IC50 for factor Xa divided by the IC50 of tPA
Square brackets hold non-standard residues; d marks the D form. Peptide text beside a SMILES is read from it. * marks the point of attachment. d2Nal = N[C@H](Cc1ccc2ccccc2c1)C(=O)O; dPhg = N[C@@H](C(=O)O)c1ccccc1; Boc = CC(C)(C)OC(=O)*
Assignment: determine reported Percent Selectivity tPA for the given compounds.

Suppose we examine the compound CC(C)(C)OC(=O)N[C@@H](C(=O)N[C@@H](Cc1ccccc1)C(=O)N[C@H](C=O)CCCNC(=N)N)c1ccccc1 [[2]] (Boc-[dPhg]-Phe-Arg-aldehyde) ; what Percent Selectivity tPA value has been reported? < 2.6

Suppose we examine the compound CC(C)(C)OC(=O)NC(C(=O)N[C@@H](Cc1cccc2ccccc12)C(=O)N[C@H](C=O)CCCNC(=N)N)c1ccc(-c2ccccc2)cc1 (some centres unmarked) [[7]] ; what Percent Selectivity tPA value has been reported? < 10

Suppose we examine the compound CC(C)(C)OC(=O)N[C@H](Cc1ccc2ccccc2c1)C(=O)N[C@@H](Cc1ccccc1)C(=O)N[C@H](C=O)CCCNC(=N)N [[1]] (Boc-[d2Nal]-Phe-Arg-aldehyde) ; what Percent Selectivity tPA value has been reported? < 0.9

Suppose we examine the compound CC(C)(C)OC(=O)N[C@H](Cc1ccccc1)C(=O)N1CC[C@H](c2ccccc2)[C@H]1C(=O)N[C@H](C=O)CCCNC(=N)N (relative stereo) [[10]] ; what Percent Selectivity tPA value has been reported? < 2.5

Suppose we examine the compound CC(C)(C)OC(=O)N[C@H](Cc1ccccc1)C(=O)N[C@@H](Cc1ccccc1)C(=O)N[C@H](C=O)CCCNC(=N)N [[4]] (Boc-[dF]-Phe-Arg-aldehyde) ; what Percent Selectivity tPA value has been reported? < 0.8
